readoutType: melting point

Answered examples (3):
inputsmiles=N=C(N)NCCNc1c(I)cc(C(=O)NCCCC[C@H](NC(=O)c2cc(I)c(NCCNC(=N)N)c(I)c2)C(=O)NCCCC[C@H](NC(=O)c2cc(I)c(NCCNC(=N)N)c(I)c2)C(=O)NCCCC[C@H](NC(=O)c2cc(I)c(NCCNC(=N)N)c(I)c2)C(=O)NCCNc2ccc([N+](=O)[O-])c3nonc23)cc1I readouttype="melting point" endpointresult="189.4 to 191.5 °C"
inputsmiles=NCCNc1c(I)cc(C(=O)NCCCC[C@H](NC(=O)c2cc(I)c(NCCN)c(I)c2)C(=O)NCCCC[C@H](NC(=O)c2cc(I)c(NCCN)c(I)c2)C(=O)NCCCC[C@H](NC(=O)c2cc(I)c(NCCN)c(I)c2)C(=O)NCCNc2ccc([N+](=O)[O-])c3nonc23)cc1I readouttype="melting point" endpointresult="192.9 to 195.7 °C"
inputsmiles=NCCCC[C@H](N)C(=O)NCCNc1ccc([N+](=O)[O-])c2nonc12 readouttype="melting point" endpointresult="151.4 to 153.9 °C"

input: What does the data say about its melting point? Entry: NCCCC[C@H](N)C(=O)NCCCC[C@H](N)C(=O)NCCCC[C@H](N)C(=O)NCCNc1ccc([N+](=O)[O-])c2nonc12
output: 183.3 to 184.7 °C
